The entries below are paired with their reported SPOT peptide array binding signal intensity.
TESTED SYSTEM: AgLsb1
METHOD: SPOT peptide array binding signal intensity (averaged, normalized) (arbitrary units (background-subtracted, floor 0; scale differs between SH3 domains)); higher = stronger binding of the SH3 domain to the peptide
VALUE KIND: SPOT peptide array binding signal intensity

In [3]: df
Out[3]:
            binder  measurement
0  VLRFLGFPLPIFEKG         7.75
1  APKREAPKPPANTSP          4.5
2  DRIRMFIRFPKFLLE            1
3  YRRKSIPFAPHQITA         25.8

src = the supplement of paper PMC4466140
